Sourced from patent US20190276542A1

- tested.target: T1, recombinant human (rhu) PD1 (extracellular domain only) (human, UniProt Q15116 25-170)
- T1 construct: extracellular domain; also called recombinant human PD1
- T1 sequence (Q15116 25-170): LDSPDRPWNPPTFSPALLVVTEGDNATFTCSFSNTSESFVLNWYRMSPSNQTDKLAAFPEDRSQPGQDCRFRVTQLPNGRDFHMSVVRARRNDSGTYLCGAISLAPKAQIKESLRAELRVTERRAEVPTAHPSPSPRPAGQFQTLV
- test.method.notes: SPR (Biacore 3000), antibody captured by anti-human IgG, PD1 as analyte
metric.name: Kd (nM)

binder: anti-hPD1 antibody #4 (antibody, human IgG4, V domains shown, also called Anti-hPD1 #4; Anti-PD1 #4) VH: QVQLVQSGAEVKKPGASVKVSCKASGYTFTNYWMHWVRQAPGQGLEWMGEIDPFDSYTNYNQKFKGRVTMTRDTSTSTVYMELSSLTSEDTAVYYCARPGYTYGGMDFWGQGTLVTVSS VL: DIQMTQSPSSLSASVGDRVTITCKSSQSLLNSGNQKNYLAWYQQKPGKPPKLLIYGASTRDSGVPSRFSGSGSGTDFTLTISSLQPEDVATYYCQNDHYYPYTFGGGTKVEIK
measured: 4.62

binder: anti-hPD1 antibody #3 (antibody, human IgG4, V domains shown, also called Anti-hPD1 #3; Anti-PD1 #3) VH: QVQLVQSGAEVKKPGASVKVSCKASSYTFTNYWMHWVRQAPGQGLEWMGEIDPYDSYTNYNQKFKGRVTMTIDTSTSTVYMELSSLTSEDTAVYYCARPGFTYGGMDFWGQGTLVTVSS VL: DIQMTQSPSSLSASVGDRVTITCKSSQSLFNSGNQKNYLAWYQQKPGKVPKLLIYGASTRESGVPARFSGSGSGTDFTLTISSLQAEDVATYYCQNDHYYPYTFGGGTKVEIK
measured: 5.16

binder: anti-hPD1 antibody #7 (antibody, human IgG4, V domains shown, also called Anti-hPD1 #7; Anti-PD1 #7) VH: QVQLVQSGAEVKKPGASVKVSCKASGYTFTNYWIHWVRQAPGQGLEWMGEIDPYDSYTNYNQKFKGRVTMTIDKSTNTVYMELSSLRSEDTAVYYCARPGLTYGGMDFWGQGTLVTVSS VL: DIVMTQSPDSLAVSLGERATINCRSSQSLFISGNQKNYLAWYQQKPGQPPKLLIYGASTRESGVPDRFSGSGSGTDFTLTISSLQAEDVAVYYCQNNHYYPYTFGGGTKVEIK
measured: 0.297

binder: anti-hPD1 antibody #1 (antibody, V domains shown, also called Anti-hPD1 #1; Anti-PD1 #1) VH: QVQLVQSGAEVKKPGASVKVSCKASGYTFTNYWIHWVRQAPGQGLEWMGEIDPYDSYTNYNQKFKGRVTMTVDKSTSTVYMELSSLRSEDTAVYYCARPGFTYGGMDFWGQGTLVTVSS VL: DIQMTQSPSSLSASVGDRVTITCKSSQSLFNSGNQKNYLAWYQQKPGKVPKLLIYGASTRDSGVPYRFSGSGSGTDFTLTISSLQPEDVATYYCQNDHYYPYTFGGGTKVEIKR
measured: 2.18
